Recorded below: MIC, system Campylobacter coli ZMF.

Cc1cc(S(=O)(=O)Nc2ccc(C(=O)/C=C/c3ccc(Br)cc3)cc2)c(Cl)cc1Cl: > 500 µg/mL
Cc1ccc(/C=C/C(=O)c2ccc(NS(=O)(=O)c3cc(C)c(Cl)cc3Cl)cc2)cc1: > 500 µg/mL
CC1(C)S[C@@H]2[C@H](NC(=O)[C@H](N)c3ccccc3)C(=O)N2[C@H]1C(=O)O [ampicillin, reference compound]: 16 µg/mL
Cc1cc(S(=O)(=O)Nc2ccc(C(=O)/C=C/c3ccc(F)cc3)cc2)c(Cl)cc1Cl: > 500 µg/mL

Prompt line: Give Campylobacter coli ZMF MIC for the following compound: Cc1cc(S(=O)(=O)Nc2ccc(C(=O)/C=C/c3ccccc3)cc2)c(Cl)cc1Cl
Response line: > 500 µg/mL

Prompt line: Give Campylobacter coli ZMF MIC for the following compound: Cc1cc(S(=O)(=O)Nc2ccc(C(=O)/C=C/c3ccc(Cl)cc3)cc2)c(Cl)cc1Cl
Response line: > 500 µg/mL

# credit: paper PMC10778824
